ASSAY TEXT: supercomplex reporter luminescence per Hoechst cell count – Hoechst nuclei count (AID 1645838);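 note: control cybrid cells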
RECORDED CONDITIONS: Cells, luminescence/Hoechst cell count ratio, measured here: cell number, Hoechst nuclei count, library stock concentration (final well concentration not given) 80 uM
Hit rate of the full screen: of about 2,000 compounds, about 100 (5%) were called active. The full list was thinned out, with actives kept by preference.
Rule for this label: yes (1) means cell count is less than 5000; no (0) means cell count is at least 5000.

# TODO verify cell count < 5000 strictly for this compound: CSCCC(NC(=O)C(CC(C)C)NC(=O)CNC(=O)C(NC(=O)C(Cc1ccccc1)NC(=O)C(CO)NC(=O)C(CC(=O)O)NC(=O)[C@H](NC(=O)C(CCCCN)NC(=O)C(N)Cc1cnc[nH]1)C(C)O)C(C)C)C(N)=O (some centres undefined)
no (0)

# TODO verify cell count < 5000 strictly for this compound: CCC(C)(C)C(=O)OC1CC(C)C=C2C=CC(C)C(CCC3CC(O)CC(=O)O3)[C@H]21 (some centres undefined)
no (0)

# TODO verify cell count < 5000 strictly for this compound: `O=C(NOCC1CC1)c1ccc(F)c(F)c1Nc1ccc(I)cc1Cl`
yes (1)

# TODO verify cell count < 5000 strictly for this compound: CC(N)c1ccc(C(=O)Nc2ccnc3[nH]ccc23)cc1 (centres undefined)
no (0)

# TODO verify cell count < 5000 strictly for this compound: CC1CN(CC(=O)Nc2ccc3c(c2)Cc2cccc(-c4cc(=O)cc(N5CCOCC5)o4)c2S3)CC(C)O1 (centres undefined)
no (0)

# TODO verify cell count < 5000 strictly for this compound: `CCC(=C(CC)c1ccc(O)cc1)c1ccc(O)cc1`
no (0)

# TODO verify cell count < 5000 strictly for this compound: `Cc1ccc(C(=O)NCCCCCC(=O)Nc2ccccc2N)cc1`
no (0)

# TODO verify cell count < 5000 strictly for this compound: COc1cc(Cc2cnc(N)nc2N)c2c(c1OC)OC(C1CC1)C=C2 (centres undefined)
no (0)

# TODO verify cell count < 5000 strictly for this compound: CC(Cc1cc2c(c(C(N)=O)c1)N(CCCO)CC2)NCCOc1ccccc1OCC(F)(F)F (centres undefined)
no (0)

# TODO verify cell count < 5000 strictly for this compound: `O=c1cc(-c2cccc3c2Sc2ccccc2S3)oc(N2CCOCC2)c1`
yes (1)

# TODO verify cell count < 5000 strictly for this compound: OCc1cc(C(O)CNCCCCCCOCCCCc2ccccc2)ccc1O (centres undefined)
yes (1)

# TODO verify cell count < 5000 strictly for this compound: COCC(c1ccc(C(F)(F)F)cc1)N1CCN(C2(C)CCN(C(=O)c3c(C)ncnc3C)CC2)CC1C (centres undefined)
no (0)

# TODO verify cell count < 5000 strictly for this compound: CC(C)(O)c1ccccc1CCC(SCC1(CC(=O)O)CC1)c1cccc(C=Cc2ccc3ccc(Cl)cc3n2)c1 (centres undefined)
no (0)

# TODO verify cell count < 5000 strictly for this compound: `COc1ccc(Br)c(-c2nc3ccccc3c(=O)o2)c1`
no (0)

# TODO verify cell count < 5000 strictly for this compound: CC1(C)OC2CO[C@@]3(COS(N)(=O)=O)OC(C)(C)OC3C2O1 (some centres undefined)
no (0)

###

ASSAY TEXT: supercomplex reporter luminescence per Hoechst cell count – Hoechst nuclei count (AID 1645838);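 note: control cybrid cells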;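 for z-score: higher means more mitochondrial supercomplex formation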
RECORDED CONDITIONS: Cells, luminescence/Hoechst cell count ratio, stronger effect = higher value
Out of some 2,000 compounds screened, about 100 (5%) were called active. The list comes from a sample in which actives are over-represented; it also holds close analogues and randomly drawn compounds.
Lab note: compare z-score against 1. Equal or greater, write 1.0. Smaller, write 0.0.

Assess whether reported z-score for `COc1ccc2cc(CC(=O)O)ccc2c1` sits at 1 or higher.
0.0

Assess whether reported z-score for `CC(=O)N[C@@H](CSC/C=C(\C)CC/C=C(\C)CC/C=C(\C)CCC=C(C)C)C(=O)O` sits at 1 or higher.
1.0

Assess whether reported z-score for `CC/C=C\C/C=C\C/C=C\C/C=C\CCCCC(=O)OCC` sits at 1 or higher.
0.0

Assess whether reported z-score for `O=C1C(Nc2ccccc2)=CC(=O)c2ncccc21` sits at 1 or higher.
0.0

Assess whether reported z-score for `CCCCC[C@H](O)/C=C/[C@@H]1[C@@H](C/C=C\CCCC(=O)N(CC)CC)[C@@H](O)C[C@H]1O` sits at 1 or higher.
0.0

Assess whether reported z-score for `O=C(CCCCc1ccccc1)C(F)(F)C(F)(F)F` sits at 1 or higher.
0.0

Assess whether reported z-score for `CO[C@H]1C[C@@H]2CC[C@@H](C)[C@@](O)(O2)C(=O)C(=O)N2CCCC[C@H]2C(=O)O[C@H]([C@@H](C)C[C@@H]2CC[C@@H](O)[C@H](OC)C2)CC(=O)[C@H](C)/C=C(\C)[C@@H](O)[C@@H](OC)C(=O)[C@H](C)C[C@H](C)/C=C/C=C/C=C/1C` sits at 1 or higher.
1.0

Assess whether reported z-score for `O=C(c1cccs1)c1ccc(OCCCO)c(Cl)c1Cl` sits at 1 or higher.
0.0

Assess whether reported z-score for `Oc1cccc(-c2nc(N3CCOCC3)c3sccc3n2)c1` sits at 1 or higher.
1.0
